Each entry below carries its recorded delta pKa pKaLDEE − pKaacid (second value).
- ASSAY METHOD TEXT: pKa and delta pKa (pKa LDEE − pKa acid)
- Assay type: physicochemical
MEASURED METRIC: delta pKa pKaLDEE − pKaacid (second value)

MOLECULE: CCOC(=O)C(N)Cc1ccc(O)c(O)c1.O=C(O)C(O)C(O)C(=O)O (mixture of isomers) [Example 7, LDEE (LD)Tartrate]
RECORDED MEASUREMENT: 2.90
//
MOLECULE: CCOC(=O)[C@@H](N)Cc1ccc(O)c(O)c1.CCOC(=O)[C@@H](N)Cc1ccc(O)c(O)c1.O.O.O=C(O)/C=C/C(=O)O [Example 25, LDEE Fumarate Dihydrate]
RECORDED MEASUREMENT: 2.7
//
MOLECULE: CCO.CCOC(=O)[C@@H](N)Cc1ccc(O)c(O)c1.CCOC(=O)[C@@H](N)Cc1ccc(O)c(O)c1.O=C(O)CCCCC(=O)O [Example 21, LDEE Adipate Ethanolate]
RECORDED MEASUREMENT: 1.83
//
MOLECULE: CCO.CCOC(=O)[C@@H](N)Cc1ccc(O)c(O)c1.CCOC(=O)[C@@H](N)Cc1ccc(O)c(O)c1.O=C(O)CCC(=O)O [Example 22, LDEE Succinate Ethanolate]
RECORDED MEASUREMENT: 1.63
//
MOLECULE: CCOC(=O)[C@@H](N)Cc1ccc(O)c(O)c1.O=C(O)C(O)C(O)C(=O)O [Example 4, LDEE L(+)Tartrate]
RECORDED MEASUREMENT: 2.90
//
MOLECULE: CCOC(=O)[C@@H](N)Cc1ccc(O)c(O)c1.O=C(O)CC(O)(CC(=O)O)C(=O)O [Example 13, LDEE Citrate]
RECORDED MEASUREMENT: 4.28
//
MOLECULE: CCO.CCOC(=O)[C@@H](N)Cc1ccc(O)c(O)c1.O=C(O)/C=C\C(=O)O [Example 28, LDEE Maleate Ethanolate]
RECORDED MEASUREMENT: 1.02
//
MOLECULE: CCOC(=O)[C@@H](N)Cc1ccc(O)c(O)c1.O=P(O)(O)O [Example 11, LDEE Phosphate]
RECORDED MEASUREMENT: 0.04
//
MOLECULE: CCOC(=O)[C@@H](N)Cc1ccc(O)c(O)c1.O=C(O)C(O)C(O)C(=O)O [Example 5, LDEE Hydrogen L(+)Tartrate]
RECORDED MEASUREMENT: 2.90
//
MOLECULE: CCOC(=O)[C@@H](N)Cc1ccc(O)c(O)c1.CCOC(=O)[C@@H](N)Cc1ccc(O)c(O)c1.O.O.O=C(O)CCC(=O)O [Example 23, LDEE Succinate Dihydrate]
RECORDED MEASUREMENT: 1.63

* * *

- ASSAY METHOD TEXT: Hygroscopicity test: weight gain of solid sample in humidity chamber at RH=80%
- Assay type: physicochemical
- EXPERIMENTAL SETUP: RH = 80%
Each entry below carries its recorded Color stability at RH = 80%.
MEASURED METRIC: Color stability at RH = 80%

COMPOUND: CCOC(=O)[C@@H](N)Cc1ccc(O)c(O)c1.O=C(O)[C@@H](O)c1ccccc1 [Example 15, LDEE S(+)Mandelate]
MEASURED METRIC: Color stability at RH = 80%
RECORDED MEASUREMENT: >24 h
--
COMPOUND: CCCCCCCC(=O)O.CCOC(=O)[C@@H](N)Cc1ccc(O)c(O)c1 [Example 19, LDEE Octanoate]
MEASURED METRIC: Color stability at RH = 80%
RECORDED MEASUREMENT: >48 h
--
COMPOUND: CCO.CCOC(=O)[C@@H](N)Cc1ccc(O)c(O)c1.CCOC(=O)[C@@H](N)Cc1ccc(O)c(O)c1.O=C(O)CCC(=O)O [Example 22, LDEE Succinate Ethanolate]
MEASURED METRIC: Color stability at RH = 80%
RECORDED MEASUREMENT: >24 h
--
COMPOUND: CCO.CCOC(=O)[C@@H](N)Cc1ccc(O)c(O)c1.CCOC(=O)[C@@H](N)Cc1ccc(O)c(O)c1.O=C(O)CCCCC(=O)O [Example 21, LDEE Adipate Ethanolate]
MEASURED METRIC: Color stability at RH = 80%
RECORDED MEASUREMENT: >24 h
--
COMPOUND: CCOC(=O)[C@@H](N)Cc1ccc(O)c(O)c1.CCOC(=O)[C@@H](N)Cc1ccc(O)c(O)c1.O.O.O=C(O)/C=C/C(=O)O [Example 25, LDEE Fumarate Dihydrate]
MEASURED METRIC: Color stability at RH = 80%
RECORDED MEASUREMENT: >48 h
--
COMPOUND: CCOC(=O)C(N)Cc1ccc(O)c(O)c1.O=C(O)C(O)c1ccccc1 (stereo not drawn) [Example 17, LDEE R(−)Mandelate]
MEASURED METRIC: Color stability at RH = 80%
RECORDED MEASUREMENT: >24 h
--
COMPOUND: CCOC(=O)C(N)Cc1ccc(O)c(O)c1.O=C(O)C(O)c1ccccc1 (stereo not drawn) [R(−)Mandelate from chloroform, LDEE R(−)Mandelate]
MEASURED METRIC: Color stability at RH = 80%
RECORDED MEASUREMENT: >24 h
--
COMPOUND: CCOC(=O)[C@@H](N)Cc1ccc(O)c(O)c1.CCOC(=O)[C@@H](N)Cc1ccc(O)c(O)c1.O.O.O=C(O)CCC(=O)O [Example 23, LDEE Succinate Dihydrate]
MEASURED METRIC: Color stability at RH = 80%
RECORDED MEASUREMENT: >72 h
--
COMPOUND: CCOC(=O)[C@@H](N)Cc1ccc(O)c(O)c1.CS(=O)(=O)O [Example 3, LDEE Mesylate]
MEASURED METRIC: Color stability at RH = 80%
RECORDED MEASUREMENT: >24 h
